- Tested on: HeLa Kyoto;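 further: HeLa Kyoto cells synchronized by double thymidine or nocodazole block, proteins quantified by TMT10plex mass spectrometry, three independent biological replicates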
- experiment: melting temperature (median over replicates), in situ; higher = more thermally stable
- experimental.setup: cell cycle stage: G1/S
measurement.label: melting temperature (°C)
# output: bare number, implied unit °C

The examples below pair each entry with its known result.
MYHNSSQKRHWTFSSEEQLARLRADANRKFRCKAVANGKVLPNDPVFLEPHEEMTLCKYYEKRLLEFCSVFKPAMPRSVVGTACMYFKRFYLNNSVMEYHPRIIMLTCAFLACKVDEFNVSSPQFVGNLRESPLGQEKALEQILEYELLLIQQLNFHLIVHNPYRPFEGFLIDLKTRYPILENPEILRKTADDFLNRIALTDAYLLYTPSQIALTAILSSASRAGITMESYLSESLMLKENRTCLSQLLDIMKSMRNLVKKYEPPRSEEVAVLKQKLERCHSAELALNVITKKRKGYEDDDYVSKKSKHEEEEWTDDDLVESL [CCNH]	51.1
MSGLSGPPARRGPFPLALLLLFLLGPRLVLAISFHLPINSRKCLREEIHKDLLVTGAYEISDQSGGAGGLRSHLKITDSAGHILYSKEDATKGKFAFTTEDYDMFEVCFESKGTGRIPDQLVILDMKHGVEAKNYEEIAKVEKLKPLEVELRRLEDLSESIVNDFAYMKKREEEMRDTNESTNTRVLYFSIFSMFCLIGLATWQVFYLRRFFKAKKLIE [TMED10]	55.3
MAAVSGLVRRPLREVSGLLKRRFHWTAPAALQVTVRDAINQGMDEELERDEKVFLLGEEVAQYDGAYKVSRGLWKKYGDKRIIDTPISEMGFAGIAVGAAMAGLRPICEFMTFNFSMQAIDQVINSAAKTYYMSGGLQPVPIVFRGPNGASAGVAAQHSQCFAAWYGHCPGLKVVSPWNSEDAKGLIKSAIRDNNPVVVLENELMYGVPFEFPPEAQSKDFLIPIGKAKIERQGTHITVVSHSRPVGHCLEAAAVLSKEGVECEVINMRTIRPMDMETIEASVMKTNHLVTVEGGWPQFGVGAEICARIMEGPAFNFLDAPAVRVTGADVPMPYAKILEDNSIPQVKDIIFAIKKTLNI [PDHB]	51.7
MAAAVAAAPGALGSLHAGGARLVAACSAWLCPGLRLPGSLAGRRAGPAIWAQGWVPAAGGPAPKRGYSSEMKTEDELRVRHLEEENRGIVVLGINRAYGKNSLSKNLIKMLSKAVDALKSDKKVRTIIIRSEVPGIFCAGADLKERAKMSSSEVGPFVSKIRAVINDIANLPVPTIAAIDGLALGGGLELALACDIRVAASSAKMGLVETKLAIIPGGGGTQRLPRAIGMSLAKELIFSARVLDGKEAKAVGLISHVLEQNQEGDAAYRKALDLAREFLPQGPVAMRVAKLAINQGMEVDLVTGLAIEEACYAQTIPTKDRLEGLLAFKEKRPPRYKGE [AUH]	51.6

Turning now to a further sequence:
Prompt line: Consider the sequence shown here: MQWNVPRTVSRLARRTCLEPHNAGLFGHCQNVKGPLLLYNAESKVVLVQGPQKQWLHLSAAQCVAKERRPLDAHPPQPGVLRHKQGKQHVSFRRVFSSSATAQGTPEKKEEPDPLQDKSISLYQRFKKTFRQYGKVLIPVHLITSGVWFGTFYYAALKGVNVVPFLELIGLPDSVVSILKNSQSGNALTAYALFKIATPARYTVTLGGTSVTVKYLRSHGYMSTPPPVKEYLQDRMEETKELITEKMEETKDRLTEKLQETKEKVSFKKKVE [FAM210A] What is its recorded melting temperature?
Response line: 55.7

Reference source: the supplement of paper PMC5998384
